The measurements presented in this section are drawn from patent US12390472B2.

Below are log10 of IC50 values recorded for EZH2 (wt) (Homo sapiens (Human), UniProt Q15910).
Reminder: these figures are log10 of reported IC50, in nM before transformation.

Example entries begin here.
{"compound": "CCN(c1cc(O[C@H]2C[C@H](N3C[C@@H](C)O[C@@H](C)C3)C2)cc(C(=O)NCc2c(OC)cc(C)[nH]c2=O)c1C)C1CCC(F)(F)CC1", "assayed.system": "EZH2 (wt) (Homo sapiens (Human), UniProt Q15910)", "recorded.result": 0.08}
{"compound": "CCN(c1cc(O[C@H]2C[C@H](N3C[C@@H](C)O[C@@H](C)C3)C2)cc(C(=O)NCc2c(OC)cc(C)[nH]c2=O)c1C)C1CC2CCC(C1)O2 (stereo partly drawn)", "assayed.system": "EZH2 (wt) (Homo sapiens (Human), UniProt Q15910)", "recorded.result": 0.04}
{"compound": "CCN(c1cc(O[C@H]2C[C@H](N3C[C@@H](C)O[C@@H](C)C3)C2)cc(C(=O)NCc2c(C)cc(C)[nH]c2=O)c1C)C1CCC(F)(F)CC1", "assayed.system": "EZH2 (wt) (Homo sapiens (Human), UniProt Q15910)", "recorded.result": 0.36}
{"compound": "CCN(c1cc(O[C@H]2C[C@H](N3CCCCC3)C2)cc(C(=O)NCc2c(O)cc(C)[nH]c2=O)c1C)C1CCC(F)(F)CC1", "assayed.system": "EZH2 (wt) (Homo sapiens (Human), UniProt Q15910)", "recorded.result": 2.16}

Ask: I would be grateful if you could share the reported log10 of IC50 for CCN(c1cc(O[C@H]2C[C@H](N3CCCCC3)C2)cc(C(=O)NCc2c(C)cc(C)[nH]c2=O)c1C)C1CCOCC1 .
Reply: -0.28

====

Tested on: Pfeiffer cells
protocol.notes: Experiment on Pfeiffer cell proliferation (CellTiter-Glo)
Type: cell-based, human
test.parameters: Homo sapiens, 336 h, Day 14, read-out: IC50 Pfeiffer proliferation Day 14
value.type: IC50 (nM)
Give bare numbers, in nM.

In the examples that follow, each entry is paired with its recorded IC50.
{"compound": "CCN(c1cc(O[C@H]2C[C@H](N3C[C@@H](C)O[C@@H](C)C3)C2)cc(C(=O)NCc2c(OC)cc(C)[nH]c2=O)c1C)C1CCC(F)(F)CC1 [Example 87]", "IC50 (nM)": 4.3}
{"compound": "CCN(c1cc(O[C@H]2C[C@H](N3CCCCC3)C2)cc(C(=O)NCc2c(OC)cc(C)[nH]c2=O)c1C)C1CCC(F)(F)CC1 [Example 91]", "IC50 (nM)": 2}
{"compound": "CCN(c1cc(O[C@H]2C[C@H](N3C[C@@H](C)O[C@@H](C)C3)C2)cc(C(=O)NCc2c(C)cc(C)[nH]c2=O)c1C)C1CCC(F)(F)CC1 [Example 45]", "IC50 (nM)": 9.7}

We now examine a further compound.
Ask: Request the reported IC50 associated with CCN(c1cc(O[C@H]2C[C@H](N3CCCCC3)C2)cc(C(=O)NCc2c(C)cc(C)[nH]c2=O)c1C)C1CCC(F)(F)CC1 [Example 68]
Reply: 4.6

====

protocol.notes: In vivo pharmacokinetic properties in mice
Design: species or system mouse
test.parameters: male ICR mice; intragastric 250 mg/kg vs intravenous 5 mg/kg
Procedure: Male ICR mice were divided into different groups with 3 mice in each group, and single intravenous injection and single intragastric administration were conducted respectively. The compounds were formulated with 10% DMSO/90% (20% Captisol) to reach an appropriate concentration and then administered intravenously at 5 mg/kg. […] The concentration of the compound in the plasma was quantitatively detected by an LC-MS/MS method.
For each record, write down the corresponding F.
Write the quantity with the unit trailing the number.

Quick one: give me F for each item below, same order please.
1. CCN(c1cc(O[C@H]2C[C@H](N3CCC(C)CC3)C2)cc(C(=O)NCc2c(C)cc(C)[nH]c2=O)c1Cl)C1CCOCC1
2. CCN(c1cc(O[C@H]2C[C@H](N3CCCCC3)C2)cc(C(=O)NCc2c(OC)cc(C)[nH]c2=O)c1C)C1CCOCC1
3. CCN(c1cc(O[C@H]2C[C@H](N3CCCCC3)C2)cc(C(=O)NCc2c(C)cc(C)[nH]c2=O)c1C)C1CCC(F)(F)CC1
4. CCN(c1cc(O[C@H]2C[C@H](N3CCOCC3)C2)cc(C(=O)NCc2c(C)cc(C)[nH]c2=O)c1C)C1CCOCC1
5. CCN(c1cc(O[C@H]2C[C@H](N3CCOCC3)C2)cc(C(=O)NCc2c(C)cc(C)[nH]c2=O)c1C)C1CC2CCC(C1)O2 (stereo partly drawn)
6. CCN(c1cc(O[C@H]2C[C@H](N3C[C@@H](C)O[C@@H](C)C3)C2)cc(C(=O)NCc2c(C)cc(C)[nH]c2=O)c1C)C1CC2CCC(C1)O2 (stereo partly drawn)
7. CCN(c1cc(O[C@H]2C[C@H](N3CCCCC3)C2)cc(C(=O)NCc2c(C)cc(C)[nH]c2=O)c1Cl)C1CCOCC1

Reply:
1. 60.5%
2. 23.1%
3. 56.5%
4. 25.1%
5. 29.5%
6. 118.1%
7. 38.3%

I have 2 compounds here; please give me F for each one.
1. CCN(c1cc(OC2CN(C)C2)cc(C(=O)NCc2c(C)cc(C)[nH]c2=O)c1C)C1CCC(N(C)C)CC1 (stereo not drawn) [EPZ349, reference compound]
2. CCN(c1cc(OC2CNC2)cc(C(=O)NCc2c(C)cc(C)[nH]c2=O)c1C)C1CCOCC1 [EPZ195, reference compound]

Reply:
12.8%
2.64%
